Target: HLA A6801 (human)
Test: 125I-probe competition, purified HLA
pIC50 values, listed per item
Bear in mind: pIC50 is minus log10 of a mol/L concentration; give just that figure.

Consider the worked cases shown below.
MVMLMLVRFK (modifications not checked) [HPV31.E1.253] | 8.00
VVLLLVRYK (modifications not checked) [HPV16.E1.274] | 7.12
TVSATQLVK (modifications not checked) [HPV18.E2.211] | 7.51
ATTPIIHLK (modifications not checked) [HPV31.E2.291] | 8.60
KVSEFRWYRY (modifications not checked) [HPV31.E6.72] | 6.72
STVSVGTAK (modifications not checked) [HPV18.E2.230] | 8.00
KQGAMLAVFK (modifications not checked) [HPV18.E1.210] | 6.63

(Q) What value of pIC50 has been reported for the following binder? SVYGETLEK (modifications not checked) [HPV45.E6.84]
(A) 8.14
